Origin of measurements: patent US7390892B2

Assayed System: Recombinant E. maxima PKG (Eimeria maxima, UniProt Q8MMZ5)
Sequence (Q8MMZ5 1-1007): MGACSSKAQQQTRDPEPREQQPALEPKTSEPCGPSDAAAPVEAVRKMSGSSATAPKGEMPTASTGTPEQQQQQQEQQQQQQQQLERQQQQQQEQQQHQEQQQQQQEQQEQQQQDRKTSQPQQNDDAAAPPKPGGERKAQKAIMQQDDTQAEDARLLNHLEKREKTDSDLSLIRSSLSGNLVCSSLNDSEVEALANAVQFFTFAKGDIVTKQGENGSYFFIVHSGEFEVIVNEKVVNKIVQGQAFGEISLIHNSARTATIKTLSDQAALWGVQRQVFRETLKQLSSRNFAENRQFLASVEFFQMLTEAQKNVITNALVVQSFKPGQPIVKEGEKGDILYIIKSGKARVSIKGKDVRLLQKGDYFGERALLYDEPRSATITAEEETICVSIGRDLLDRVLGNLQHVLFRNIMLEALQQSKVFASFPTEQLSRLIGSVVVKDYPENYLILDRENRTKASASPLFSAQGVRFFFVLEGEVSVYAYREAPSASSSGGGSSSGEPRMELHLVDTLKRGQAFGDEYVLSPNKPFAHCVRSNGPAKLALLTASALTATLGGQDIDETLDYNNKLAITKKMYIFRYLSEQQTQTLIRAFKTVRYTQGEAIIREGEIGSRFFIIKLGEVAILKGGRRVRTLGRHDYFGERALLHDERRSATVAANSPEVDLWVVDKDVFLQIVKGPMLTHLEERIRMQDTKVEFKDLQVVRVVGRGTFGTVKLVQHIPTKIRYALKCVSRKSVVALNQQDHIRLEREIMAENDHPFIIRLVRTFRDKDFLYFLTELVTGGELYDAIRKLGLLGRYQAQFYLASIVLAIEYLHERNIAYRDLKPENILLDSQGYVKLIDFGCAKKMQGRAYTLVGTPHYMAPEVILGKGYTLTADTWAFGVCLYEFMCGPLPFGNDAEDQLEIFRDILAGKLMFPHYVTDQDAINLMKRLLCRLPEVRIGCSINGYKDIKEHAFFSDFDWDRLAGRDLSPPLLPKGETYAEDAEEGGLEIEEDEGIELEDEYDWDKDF
Assay Procedure: PKG catalytic assay, recombinant E. maxima PKG
Endpoint Label: IC50 (nM)
Could you give me the number in nM? Just the number is fine.

Query: What IC50 value was documented for this compound, CN1CCC(c2cc(-c3ccncc3)c(-c3ccc(F)cc3)[nH]2)CC1 ?
Response: 4.2
